Tested on: NCI/ADR-RES ovarian
Test: NCI-60 one-dose screen, 48 h
Conditions: 10 µM unless noted
This is part of a sample that, as a whole, favours compounds with a hit. Of some 83,000 tested, about 20% had one in any assay. The source made the active and inactive calls. How the source made its calls: active means growth percent below 10; inactive means the rest.
Bench note: report the call from active, inactive

COC(=O)[C@H](C[C@H](Cc1ccccc1)NC(=O)c1csc([C@@H](C[C@H](C(C)C)N(C)C(=O)[C@@H](NC(=O)[C@H]2CCCCN2C)C(C)C)OC(C)=O)n1)NC(=O)OCc1ccccc1    active
Clc1cccc(NCOOC2(OOCNc3cccc(Cl)c3)CCCCCC2)c1    inactive
O=C([O][Hg][CH2]C1OCCOC1[CH2][Hg][O]C(=O)c1ccccc1)c1ccccc1 (stereo not given)    inactive
Nc1ccc(OCCNS(=O)(=O)c2cccc(S(=O)(=O)F)c2)c(Cl)c1    inactive
COc1ccc2c(c1)c(-c1nc(-c3c[nH]c4ncccc34)cs1)cn2CCCCN1CCCCC1    active
CCOP(=O)(NC[C@H]1O[C@](O)(CO)[C@@H](O)[C@@H]1O)OCC    inactive

Per the records of this test, what outcome belongs to `Nc1ccc(Cl)cc1` ? inactive

Short answer needed: outcome of this test for O=[N+]([O-])CC(O)C(Cl)(Cl)Cl (stereo not given) ? inactive

----------
Tested on: HL-60(TB) leukemia
Test: NCI-60 one-dose screen, 48 h (100 = growth as untreated, 0 = no growth, -100 = all killed)
Conditions: 10 µM unless noted
The panel holds about 83,000 compounds, 20% with a hit somewhere; the sample as a whole holds those more often.
Measured growth, listed per entry for reference.
Express your answer in %, writing the number without its unit.

Known growth results, listed for orientation:
CC1(C)N=C(N)N=C(N)N1c1ccc(OCCCNC(=O)Nc2ccc(S(=O)(=O)F)cc2)c(Cl)c1    31.8
CC[C@H](C)[C@H](NC(=O)NC(C)(C)C)C(=O)N(C)[C@H](C[C@@H](OC(C)=O)c1nc(C(=O)N[C@@H](Cc2ccccc2)C[C@H](C)C(=O)OC)cs1)C(C)C    -14.6
O=[N+]([O-])c1cc([N+](=O)[O-])c(Cl)cc1Cl    -40.4
Cc1ccc(C(Cc2ccccc2)NCCO)cc1 (configuration not stated)    91.4

Read the next record carefully.
Field growth (entry `CC(=O)Nc1nc2c(s1)CC[C@@]1(C)C2=CC[C@H]2[C@@H]3CC[C@H](O)[C@@]3(C)CC[C@@H]21` ) reads 29.3

----------
System: SF-539 CNS
Experiment: NCI-60 one-dose screen, 48 h
Conditions: 10 µM unless noted
This is part of a sample that, as a whole, favours compounds with a hit. Of some 83,000 tested, about 20% had one in any assay. Activity calls are given as the source filed them. The calls were made as follows: active = growth percent below 10; inactive = the rest.
Give your call using only these classes: active, inactive

Field: example entries. Status: answers known.
CC12CCC3C(CCC4Cc5[nH]c6ccccc6c5CC43C)C1CCC2O (stereo not given)    active
COC(=O)[C@@H](C)C[C@H](Cc1ccccc1)NC(=O)c1csc([C@@H](C[C@H](C(C)C)N(C)C(=O)[C@@H](NC(=O)C23CC(NC(C)=O)(C2)C3)C2CC2)OC(C)=O)n1    inactive
COc1ccc(/C=C\c2cc(OC)c(OC)c(OC)c2)cc1NC(=O)/C=C/c1ccc(OC)c(OC)c1    active
CC12CCC3C(C=CC4=C(N)C(=O)CCC43C)C1CCC2=O (stereo not given)    inactive
Cc1c(C)c([N+](=O)[O-])c(C)c(C)c1[N+](=O)[O-]    inactive

Outcome logged for `Oc1c(CCl)cc(Cl)cc1CCl` in this assay: inactive

So what was the verdict on COc1ccc2c(c1)c(C1(O)CC(CSC#N)OC1=O)cn2C(=O)c1ccc(Cl)cc1 (stereo not given) in this test? inactive

Please state the recorded outcome for this compound: `Cc1cc(N(CCCl)CCCl)ccc1/C=N\NC(=O)c1ccncc1` inactive

Test call for this compound, please: `CCc1ccccc1[C@@H]1C[C@]2(C)CCO[C@@H]2OO1` inactive

For CC1(C)CN1P(=O)(N1CC1(C)C)N1CC1(C)C (stereo not given) , what call appears in the results of this test? inactive
